B1: LOXL2 (parent)
chain: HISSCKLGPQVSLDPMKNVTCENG

Variants of: B1
Test: protein stability index of a GFP-peptide fusion (GPS, HEK-293T) (PSI 1-6); higher = more stable;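 note: lentivirally expressed fusions sorted by FACS into six bins by GFP to DsRed ratio, PSI derived from sequencing read proportions per bin multiplied by bin number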
Settings: c terminus: a fixed tail appended
Listing: protein stability index of selected variants
Reply with the value as a number alone.

Solved entries (count: 8):
HISSCKLFPQVSLDPMKNVTCENG [G8F]    3.04
HISSCKLGPQVSLDPMKNVTCENY [G24Y]    3.29
HISSCKLGPQVSLDPMKNVACENG [T20A]    3.99
HISSCKLGPQSSLDPMKNVTCENG [V11S]    4.09
HISSCKAGPQVSLDPMKNVTCENG [L7A]    4.62
HISSCKLGPQVSLDPMKNVTKENG [C21K]    4.06
HISSCKLGPQVSLDPMKPVTCENG [N18P]    3.92
HISSCKLMPQVSLDPMKNVTCENG [G8M]    3.95

Prompt: Which protein stability index value is on record for HISSCKLGPQVSLDPMKNVTCENI [G24I] ?
Completion: 3.39

Prompt: Could you share which protein stability index value was measured for HSSSCKLGPQVSLDPMKNVTCENG [I2S] ?
Completion: 4.34

Prompt: Dear colleague, I am looking for the recorded protein stability index of the following variant: HISSCKLGPTVSLDPMKNVTCENG [Q10T]
Completion: 3.36

Prompt: If you can, please state the reported protein stability index value of HISSCKLGPQVSLDPMKFVTCENG [N18F] .
Completion: 2.82

Prompt: Give its protein stability index value. Item: HISSCKLGPQVSLDPMQNVTCENG [K17Q]
Completion: 3.81

Prompt: Quick one: protein stability index for HISSCKLGPQVSLDWMKNVTCENG [P15W] ?
Completion: 3.08

Prompt: Look up protein stability index for this variant: HISSCKLGPQVSLHPMKNVTCENG [D14H]
Completion: 3.61

Prompt: Can you share its protein stability index? I mean this variant: HISSCKLGPQVSLDPMKAVTCENG [N18A]
Completion: 3.76
